MEASURED TARGET: PD-L1 His protein / PD-1 Fc protein (Homo sapiens, UniProt Q9NZQ7)
Sequence (Q9NZQ7 19-238 limits assumed): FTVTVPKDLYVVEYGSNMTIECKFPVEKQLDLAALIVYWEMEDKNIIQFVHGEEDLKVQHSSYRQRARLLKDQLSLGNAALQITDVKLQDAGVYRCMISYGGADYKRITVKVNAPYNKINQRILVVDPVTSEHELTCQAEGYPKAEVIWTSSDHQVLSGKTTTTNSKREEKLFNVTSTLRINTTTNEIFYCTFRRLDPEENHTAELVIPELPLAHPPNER
PROCEDURE DETAILS: HTRF Assay (PD-1/PD-L1 interaction)
MEASUREMENT PARAMETERS: PD-L1 His 6 nM, PD-1 Fc 6 nM
QUANTITY: log10(IC50) (log10 of the value in nM)
Transform log10 | Measure IC50 | Unit nM

As a guide, the following entries are already answered.
[
  {
    "COMPOUND STRUCTURE": "COc1nc(-c2cccc(-c3cccc(-c4ccn5c(=O)c(CNC[C@@H]6CCC(=O)N6)cnc5c4)c3Cl)c2Cl)ccc1CN1CC(CO)(CO)C1",
    "MEASURED TARGET": "PD-L1 His protein / PD-1 Fc protein (Homo sapiens, UniProt Q9NZQ7)",
    "QUANTITY": "log10(IC50)",
    "MEASUREMENT": 0.11
  },
  {
    "COMPOUND STRUCTURE": "O=C1CC[C@@H](CNCc2nc3cc(-c4cccc(-c5cccc(-c6ccn7c(Cl)c(CNC[C@@H]8CCC(=O)N8)nc7c6)c5Cl)c4Cl)ccn3c2Cl)N1",
    "MEASURED TARGET": "PD-L1 His protein / PD-1 Fc protein (Homo sapiens, UniProt Q9NZQ7)",
    "QUANTITY": "log10(IC50)",
    "MEASUREMENT": 2.23
  },
  {
    "COMPOUND STRUCTURE": "COc1nc(-c2cccc(-c3cccc(-c4cnc5cc(CNC[C@@H]6CCC(=O)N6)ccc5c4)c3Cl)c2Cl)ccc1CNC[C@@H]1CCC(=O)N1",
    "MEASURED TARGET": "PD-L1 His protein / PD-1 Fc protein (Homo sapiens, UniProt Q9NZQ7)",
    "QUANTITY": "log10(IC50)",
    "MEASUREMENT": 2.76
  }
]

State the recorded log10(IC50) for this entry: COC(=O)CNCc1cnc2cc(-c3cccc(-c4cccc(-c5ccc(CNC[C@@H]6CCC(=O)N6)c(OC)n5)c4Cl)c3Cl)cc(C)n2c1=O
-0.40

What do we get for COC(=O)CNCc1ccc(-c2cccc(-c3cccc(-c4ccn5c(=O)c(CNC[C@@H]6CCC(=O)N6)cnc5c4)c3Cl)c2Cl)nc1OC ?
0.58

What do we get for COc1nc(-c2cccc(-c3cccc(-c4ccn5c(=O)c(CN6CC7(C6)CN(C(C)=O)C7)cnc5c4)c3Cl)c2Cl)ccc1CNC[C@@H]1CCC(=O)N1 ?
-1.00

* * *

MEASURED TARGET: PD-L1 His protein / PD-1 Fc protein (Homo sapiens, UniProt Q9NZQ7)
PROCEDURE DETAILS: HTRF Assay (PD-1/PD-L1 interaction)
MEASUREMENT PARAMETERS: PD-L1 His 6 nM, PD-1 Fc 6 nM
QUANTITY: pIC50
Just so you know, pIC50 here is -log10 of the concentration in molar units; reply with that number alone.

As a guide, the following entries are already answered.
[
  {
    "COMPOUND": "COc1nc(-c2cccc(-c3cccc(-c4ccc5c(n4)CCCC5NC[C@@H]4CCC(=O)N4)c3Cl)c2Cl)ccc1CNC[C@@H]1CCC(=O)N1 (mixture of isomers) [Example 235]",
    "MEASURED TARGET": "PD-L1 His protein / PD-1 Fc protein (Homo sapiens, UniProt Q9NZQ7)",
    "pIC50": 9.00
  },
  {
    "COMPOUND": "COc1nc(-c2cccc(-c3cccc(-c4ccn5c(=O)c(CNC[C@@H]6CCC(=O)N6)cnc5c4)c3Cl)c2Cl)ccc1CN1CC[C@H](O)C1 [Example 175]",
    "MEASURED TARGET": "PD-L1 His protein / PD-1 Fc protein (Homo sapiens, UniProt Q9NZQ7)",
    "pIC50": 10.00
  }
]

Okay, next one:
State the recorded pIC50 for this entry: COc1cc(-c2cccc(-c3cccc(-c4ccc(CNC[C@@H]5CCC(=O)N5)c(OC)n4)c3Cl)c2Cl)cc2c1CN(C[C@@H](C)O)CC2 [Example 419]
7.59

* * *

MEASURED TARGET: PD-L1 His protein / PD-1 Fc protein (Homo sapiens)
PROCEDURE DETAILS: HTRF Assay (PD-1/PD-L1 interaction)
MEASUREMENT PARAMETERS: PD-L1 His 6 nM, PD-1 Fc 6 nM
Protocol: PD-L1 His protein was prepared and added at the final concentration of 6 nM in the White opaque 384 well plate (Corning cat #3824BC). PD-L1 small molecule inhibitors were diluted by 3-fold starting from 20 μM and a final concentration of 0.001 μM and added to the well. PD-1 Fc protein was added at the final concentration of 6 nM. […] The plate was read using PerkinElmer Envision plate reader and data was analyzed by Prism 6 software.
Each record here notes measured IC50.
Give the quantity in nM, number only.

[
  {
    "COMPOUND STRUCTURE": "Cc1c(-c2ccn3c(=O)c(CNCCO)cnc3c2)cccc1-c1cccc(COc2cc(OCc3cncc(C#N)c3)c(CNCCO)cc2Cl)c1C#N",
    "QUANTITY": "IC50",
    "MEASUREMENT": 0.7
  }
]

State the recorded IC50 for this entry: COc1nc(-c2cccc(-c3cccc(-c4ccc5c(n4)OCCNC5)c3Cl)c2Cl)ccc1CNC[C@@H]1CCC(=O)N1
0.6

What do we get for COc1cc(-c2cccc(-c3cccc(-c4ccn5c(=O)c(CN[C@H]6C[C@](C)(O)C6)cnc5c4)c3Cl)c2Cl)cnc1CN[C@H]1C[C@](C)(O)C1 ?
39

What do we get for COc1nc(-c2cccc(-c3cccc(-c4ccn5c(=O)c(CN6CC(CO)C6)cnc5c4)c3Cl)c2Cl)ccc1CN1CC[C@H](C(=O)O)C1 ?
0.2

What do we get for COC(=O)C(C)(C)CNCc1cnc2cc(-c3cccc(-c4cccc(-c5ccc(CNC[C@@H]6CCC(=O)N6)c(OC)n5)c4Cl)c3Cl)ccn2c1=O ?
2.7

What do we get for COc1nc(-c2cccc(-c3cccc(-c4ccn5c(=O)c(CNC6CCS(=O)(=O)CC6)cnc5c4)c3Cl)c2Cl)ccc1CNC[C@@H]1CCC(=O)N1 ?
2.8

* * *

MEASURED TARGET: PD-L1 His protein / PD-1 Fc protein (Homo sapiens, UniProt Q9NZQ7)
PROCEDURE DETAILS: HTRF Assay (PD-1/PD-L1 interaction)
MEASUREMENT PARAMETERS: PD-L1 His 6 nM, PD-1 Fc 6 nM
Each record here notes measured pIC50.
Just so you know, pIC50 here is -log10 of the concentration in molar units; reply with that number alone.

State the recorded pIC50 for this entry: COc1nc(-c2cccc(-c3cccc(-c4ccn5c(=O)cc(CN[C@H]6C[C@](C)(O)C6)nc5c4)c3Cl)c2Cl)ccc1CNC[C@@H]1CCC(=O)N1
9.15

What do we get for Cc1c(NC(=O)c2ccc(CNCCO)cn2)cccc1-c1cccc(-c2ccn3c(=O)c(CNCCO)cnc3c2)c1 ?
7.10

What do we get for Cc1c(COc2cc(OCc3cncc(C#N)c3)c(CN3CC(C(=O)O)C3)cc2Cl)cccc1-c1cccc(-c2ccn3c(=O)c(CN4CC(C(=O)O)C4)ccc3c2)c1C ?
9.05

* * *

Each record here notes measured pIC50.
MEASURED TARGET: PD-L1 His protein / PD-1 Fc protein (Homo sapiens)
PROCEDURE DETAILS: HTRF Assay (PD-1/PD-L1 interaction)
MEASUREMENT PARAMETERS: PD-L1 His 6 nM, PD-1 Fc 6 nM
Just so you know, pIC50 here is -log10 of the concentration in molar units; reply with that number alone.

As a guide, the following entries are already answered.
[
  {
    "COMPOUND": "COc1nc(-c2cccc(-c3cccc(-c4ccn5c(=O)c(CN6C[C@@H](O)C[C@H]6C(=O)O)cnc5c4)c3Cl)c2Cl)ccc1CNC[C@@H]1CCC(=O)N1",
    "pIC50": 9.40
  },
  {
    "COMPOUND": "COc1nc(-c2cccc(-c3cccc(-c4ccn5c(=O)c(CN6CCC6C(N)=O)cnc5c4)c3Cl)c2Cl)ccc1CNC[C@@H]1CCC(=O)N1 (mixture of isomers)",
    "pIC50": 8.64
  },
  {
    "COMPOUND": "COc1nc(-c2cccc(-c3cccc(-c4ccn5c(=O)c(CNC[C@@H]6C[C@H]6CO)cnc5c4)c3Cl)c2Cl)ccc1CNC[C@@H]1CCC(=O)N1 (racemic)",
    "pIC50": 8.68
  },
  {
    "COMPOUND": "COc1nc(-c2cccc(-c3cccc(-c4ccc5c(=O)nc(CNC[C@@H]6CCC(=O)N6)[nH]c5c4)c3Cl)c2Cl)ccc1CNC[C@@H]1CCC(=O)N1",
    "pIC50": 7.85
  }
]

Okay, next one:
State the recorded pIC50 for this entry: COc1nc(-c2cccc(-c3cc(F)cc(-c4ccn5c(=O)c(CNC[C@@H]6CCC(=O)N6)cnc5c4)c3Cl)c2Cl)ccc1CNC[C@@H]1CCC(=O)N1
8.70

# credit: patent US20230143612A1
